- PROCEDURE DETAILS: Solubility of the free base of the compound of Formula I in solvents and mixed solvent systems
- Format: physicochemical
- EXPERIMENTAL PARAMETERS: 25 °C, aqueous with cosolvent or surfactant or cyclodextrin, thermodynamic from solid; 50% DMSO in H2O, room temperature; read-out: Solubility

{"COMPOUND": "COc1ccc(CN2CCN(c3ccc(-c4cc(-c5cnn(C)c5)cn5ncc(C#N)c45)cn3)CC2)cn1 [freebase of the compound of Formula I]", "solubility (µg/mL)": 90}

* * *

- PROCEDURE DETAILS: Solubility of the free base of the compound of Formula I in solvents and mixed solvent systems
- Type: physicochemical
- EXPERIMENTAL PARAMETERS: 25 °C, organic solvent or mixture, thermodynamic from solid; 60% DMSO in EtOH, room temperature; read-out: Solubility
VALUE TYPE: solubility

{"COMPOUND": "COc1ccc(CN2CCN(c3ccc(-c4cc(-c5cnn(C)c5)cn5ncc(C#N)c45)cn3)CC2)cn1 [freebase of the compound of Formula I]", "RESULT": "1800 µg/mL"}

* * *

- PROCEDURE DETAILS: Stability screening of freebase and selected salts of Formula I, 40° C. and 75% RH, weekly HPLC over 4 weeks
- EXPERIMENTAL PARAMETERS: stored at 40° C. and 75% RH; T = 0
VALUE TYPE: Stability, HPLC analysis, T = 0 (%)

{"MOLECULE": "COc1ccc(CN2CCN(c3ccc(-c4cc(-c5cnn(C)c5)cn5ncc(C#N)c45)cn3)CC2)cn1.Cl [HCl salt]", "VALUE TYPE": "Stability, HPLC analysis, T = 0", "MEASUREMENT UNIT": "%", "RESULT NUMBER": 99.3}
{"MOLECULE": "COc1ccc(CN2CCN(c3ccc(-c4cc(-c5cnn(C)c5)cn5ncc(C#N)c45)cn3)CC2)cn1.O=C(O)C[C@@H](O)C(=O)O [D-malic acid salt]", "VALUE TYPE": "Stability, HPLC analysis, T = 0", "MEASUREMENT UNIT": "%", "RESULT NUMBER": 97.7}
{"MOLECULE": "COc1ccc(CN2CCN(c3ccc(-c4cc(-c5cnn(C)c5)cn5ncc(C#N)c45)cn3)CC2)cn1.O=C(O)C[C@H](O)C(=O)O [L-malic acid salt]", "VALUE TYPE": "Stability, HPLC analysis, T = 0", "MEASUREMENT UNIT": "%", "RESULT NUMBER": 97.8}
{"MOLECULE": "COc1ccc(CN2CCN(c3ccc(-c4cc(-c5cnn(C)c5)cn5ncc(C#N)c45)cn3)CC2)cn1 [Freebase I]", "VALUE TYPE": "Stability, HPLC analysis, T = 0", "MEASUREMENT UNIT": "%", "RESULT NUMBER": 97.3}

* * *

- PROCEDURE DETAILS: Solubility screening of the compound of Formula IV (freebase) in solvent mixtures
- Assay type: physicochemical
- EXPERIMENTAL PARAMETERS: organic solvent or mixture; Chloroform, approximately 25° C.

{"SMILES ENTRY": "CC(C)(O)COc1cc(-c2ccc(N3CCC(O)(Cc4ccccn4)CC3)nc2)c2c(C#N)cnn2c1", "solubility": "> 59 mg/mL"}
